Molecular target: Alpha-2C adrenergic receptor (Homo sapiens)
Test: compounds altering alpha2C-coupled GIRK flux – cell-based, HEK293 alpha2C/GIRK1/2, thallium flux, primary screen (AID 624);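 note: slope of fluorescence ratio to pre-addition baseline per second over 15 to 24 s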
Conditions: thallium flux BTC fluorescence, at 10 µM, actives lie on both sides
Parameter: slope. Scope: all listed entries.
Respond with the number and no other words.

CCCn1c(OC)nc2c1c(=O)n(C)c(=O)n2C | 0.00615

q: Sample O=C(Cn1cnc2c(cnn2-c2ccc(F)cc2)c1=O)N1CCCc2ccccc21 — what was its slope?
a: 0.00385

q: Sample Cc1nnc(SCC(=O)Nc2ccc(Br)cn2)[nH]c1=O — what was its slope?
a: 0.00432

* * *

Parameter: inhibition. Scope: all listed entries.
Assay: inhibitors of TNFa-induced NFkB p65 translocation, primary screen, imaging, HUVEC, MLSMR starter and 10KST1 sets (AID 438);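 note: compound added about 3h40 before a 20 min TNFalpha stimulation; signal is the nuclear over cytoplasmic p65 intensity ratio per well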
Conditions: HUVEC TNFa-induced p65 nuclear translocation; at 2 µM, stronger effect = higher value, 0% TNFa-plus-vehicle, 100% no-TNFa wells
Give the number; % is assumed, so skip it.

# example entries with known answers
Cc1ccc(-n2c(-c3ccncc3)nnc2-c2cccs2)cc1 | -3.2
O=C(NCC1COc2ccccc2O1)C1CCCN(S(=O)(=O)c2cnc[nH]2)C1 (stereo unspecified) | 7.3
COc1ccccc1-n1c(=O)[nH]c2c(C(N)=O)nc(-c3cccnc3)nc21 | -5.2
O=C(CN(CCc1ccccc1)C(=O)CN1C(=O)COc2ccccc21)NCc1ccco1 | -2.3
O=C(Cc1ccccc1)N1CCCC(c2nc(-c3cccs3)no2)C1 (stereo unspecified) | -6.1

q: Sample CCCCNC(=O)Cn1c(=O)n(C)c2ccccc21 — what was its inhibition?
a: 6.9

* * *

Test: reduction of polyQ htt aggregates in cells – imaging, exon1htt(103Q)mCFP cells, high-content imaging, primary screen (AID 483);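 note: compound exposure lasted 3 days before fixation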
Conditions: exon1htt(103Q)mCFP cell line, aggregate imaging, at 2 µM; stronger effect = higher value
property_measured: inhibition of aggregation (%)
Give the number; % is assumed, so skip it.

# example entries with known answers
CCc1nnc(-n2nc(C)cc2-c2ccccc2)n1N | 0.6
CC1=C(C(=O)NCc2ccco2)C2(CCC(C)CC2)OC1=O (stereo not given) | 22.4
CCOc1ccc(-c2nc(N)ncc2-c2ccccc2)c(O)c1 | -4.3
c1cc(CNc2ccc3c(c2)OCO3)ccn1 | 17.7

q: Sample CC1=CC2=C(OC1N(C)C)c1cccc3cccc(c13)C2=O (stereo not given) — what was its inhibition of aggregation?
a: 3.4

q: Sample Cc1cccc(Nc2nc3c(c(=O)n(C)c(=O)n3C)n2Cc2ccccc2)c1 — what was its inhibition of aggregation?
a: 6.5

q: Sample COc1cccc(NC(=O)c2nc3nc(C)cc(C(F)F)n3n2)c1 — what was its inhibition of aggregation?
a: 1.9

* * *

Parameter: inhibition. Scope: all listed entries.
Assay: inhibitors of TNFa-induced NFkB p65 translocation, primary screen, imaging, HUVEC, MLSMR starter and 10KST1 sets (AID 438);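 note: compound added about 3h40 before a 20 min TNFalpha stimulation; signal is the nuclear over cytoplasmic p65 intensity ratio per well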
Details: HUVEC TNFa-induced p65 nuclear translocation; at 2 µM, stronger effect = higher value, 0% TNFa-plus-vehicle, 100% no-TNFa wells
Give the number; % is assumed, so skip it.

# example entries with known answers
CC1(C)CC(=O)C(C=Nc2ccc3c(c2)OCO3)=C(O)C1 | 1
O=c1c2[nH]c3ccccc3c2ncn1CCCn1ccnc1 | -0.2
COc1nc(NCCc2ccc(OC)c(OC)c2)nc(NC(C)(C)CO)n1 | -1.4
O=C(NCCN1C(=O)C2C3C=CC(C3)C2C1=O)N1CCCCC1 (configuration not stated) | -7.6

q: Sample CC1(C)CC(CCNC(=O)c2ccco2)CC(C)(C)N1 — what was its inhibition?
a: 2.3

q: Sample COCCn1c(C)cc(C(=O)CSc2nc3ccccc3c(=O)[nH]2)c1C — what was its inhibition?
a: -9.5

Origin of values: PubChem BioAssay
